System: rabbit polyclonal antibody #11341
Test: Coadministered drug interference study in the homogeneous enzyme immunoassay (HITACHI 917)
Assay type: binding
Details: 50.0 μg/mL drug added to human serum containing 20.0 μg/mL topiramate
MEASURED_ATTRIBUTE: % Interference [(20.0 μg/mL Topiramate) − (Result)] ÷ (drug conc.) × 100 (%)
Enter your answer as a number in %; do not include the unit.

Give a short answer stating reported % Interference [(20.0 μg/mL Topiramate) − (Result)] ÷ (drug conc.) × 100 for CC(C)Cc1ccc(C(C)C(=O)O)cc1 (stereo not shown) [Ibuprofen] . 2.30

Return % Interference [(20.0 μg/mL Topiramate) − (Result)] ÷ (drug conc.) × 100 for the following molecule: CN1C(=O)CN=C(c2ccccc2)c2cc(Cl)ccc21 [Diazepam] 0.64

Kindly indicate its recorded % Interference [(20.0 μg/mL Topiramate) − (Result)] ÷ (drug conc.) × 100. Item: CC(C)NCC(O)COc1ccc(CC(N)=O)cc1 (stereo not shown) [Atenolol] −0.40

For the molecule O=C1NC(=O)C(c2ccccc2)(c2ccccc2)N1 [Phenytoin] , give its measured % Interference [(20.0 μg/mL Topiramate) − (Result)] ÷ (drug conc.) × 100 value. 0.32

Supply reported % Interference [(20.0 μg/mL Topiramate) − (Result)] ÷ (drug conc.) × 100 belonging to this molecule: CC(=O)Nc1nnc(S(N)(=O)=O)s1 [Acetazolamide] 0.56

Give a short answer stating reported % Interference [(20.0 μg/mL Topiramate) − (Result)] ÷ (drug conc.) × 100 for O=C1CN=C(c2ccccc2Cl)c2cc([N+](=O)[O-])ccc2N1 [Clonazepam] . 0.70

Answer with the recorded % Interference [(20.0 μg/mL Topiramate) − (Result)] ÷ (drug conc.) × 100 for the molecule listed here: CC(=O)Nc1ccc(O)cc1 [Acetominophen] −0.38

---

Tested on: rabbit polyclonal antibody #11341
Experiment: Coadministered drug interference study in the homogeneous enzyme immunoassay (HITACHI 917)
Assay type: binding
Details: 100.0 μg/mL drug added to human serum containing 20.0 μg/mL topiramate
MEASURED_ATTRIBUTE: % Interference [(20.0 μg/mL Topiramate) − (Result)] ÷ (drug conc.) × 100 (%)
Output spec: scalar in %, unitless text.

Quickly give me recorded % Interference [(20.0 μg/mL Topiramate) − (Result)] ÷ (drug conc.) × 100 for "CCC1(c2ccccc2)C(=O)NC(=O)NC1=O" 1.08

Complete the entry with % Interference [(20.0 μg/mL Topiramate) − (Result)] ÷ (drug conc.) × 100 for "CC(=O)Oc1ccccc1C(=O)O" 0.25

Tell us which % Interference [(20.0 μg/mL Topiramate) − (Result)] ÷ (drug conc.) × 100 value is on record for NC(=O)N1c2ccccc2C=Cc2ccccc21 [Carbamazepine] −0.43

Specify measured % Interference [(20.0 μg/mL Topiramate) − (Result)] ÷ (drug conc.) × 100 for COc1ccc(CCN(C)CCCC(C#N)(c2ccc(OC)c(OC)c2)C(C)C)cc1OC (stereo not shown) . 1.07

Hello, please tell me recorded % Interference [(20.0 μg/mL Topiramate) − (Result)] ÷ (drug conc.) × 100 for this one: COCCc1ccc(OCC(O)CNC(C)C)cc1 (stereo not shown) 0.35

Supply reported % Interference [(20.0 μg/mL Topiramate) − (Result)] ÷ (drug conc.) × 100 belonging to this compound: "Nc1nnc(-c2cccc(Cl)c2Cl)c(N)n1" −1.02

For the compound "Cn1c(=O)c2c(ncn2C)n(C)c1=O" , give its measured % Interference [(20.0 μg/mL Topiramate) − (Result)] ÷ (drug conc.) × 100 value. 0.35

Respond only with % Interference [(20.0 μg/mL Topiramate) − (Result)] ÷ (drug conc.) × 100 recorded for "NCC1(CC(=O)O)CCCCC1" −0.49

In one line, give reported % Interference [(20.0 μg/mL Topiramate) − (Result)] ÷ (drug conc.) × 100 of the entry "CCC1(c2ccccc2)C(=O)NCNC1=O" . −1.83

Give me measured % Interference [(20.0 μg/mL Topiramate) − (Result)] ÷ (drug conc.) × 100, please, for this compound: NS(=O)(=O)c1cc(C2(O)NC(=O)c3ccccc32)ccc1Cl (stereo not shown) 0.16
